# Test system: 857933-349-R-J2-PDC complex spheroid viability
# experiment: Anticancer human tumor 857933-349-R-J2-PDC patient-derived colon adenocarcinoma cell line growth inhibition [POLQ]
# run_parameters: curve of first compound; second compound 1 µM
pIC50: −log10 of the molar value.

{"molecule": "COc1cccc2c1C(=O)c1c(O)c3c(c(O)c1C2=O)CC(O)(C(=O)CO)CC3OC1CC(N)C(O)C(C)O1 (stereo not given) + COC1C(OC(N)=O)C(O)C(Oc2ccc3c(O)c(NC(=O)c4ccc(O)c(CC=C(C)C)c4)c(=O)oc3c2C)OC1(C)C", "value_prefix": "=", "pIC50": 6.65}
{"molecule": "O=C(c1cc(Cc2n[nH]c(=O)c3ccccc23)ccc1F)N1CCN(C(=O)C2CC2)CC1 + Nc1ccc(C#CCN(C(=O)Cc2ncc(C(F)(F)F)cc2C(F)(F)F)c2ccc(F)cc2)nn1", "value_prefix": "<", "pIC50": 5.00}
{"molecule": "CNCc1ccc(-c2[nH]c3cc(F)cc4c3c2CCNC4=O)cc1 + Cc1cccc(N(C)C(=O)C2C(O)CCN2c2nc(C)cc(C(F)(F)F)c2C#N)c1", "value_prefix": "<", "pIC50": 5.00}
{"molecule": "COc1cc(C2c3cc4c(cc3C(OC3OC5COC(C)OC5C(O)C3O)C3COC(=O)C23)OCO4)cc(OC)c1O (stereo not given) + Cc1cccc(N(C)C(=O)C2C(O)CCN2c2nc(C)cc(C(F)(F)F)c2C#N)c1", "value_prefix": "=", "pIC50": 6.27}
{"molecule": "C=CC(=O)N1CCN(c2nc(=O)n(-c3c(C)ccnc3C(C)C)c3nc(-c4c(O)cccc4F)c(F)cc23)C(C)C1 (stereo not given) + Cc1cccc(N(C)C(=O)C2C(O)CCN2c2nc(C)cc(C(F)(F)F)c2C#N)c1", "value_prefix": "<", "pIC50": 5.00}
{"molecule": "CC1COCCN1c1cc(C2(O)CC3CCC(C2)O3)c2cnn(-c3ccn[nH]3)c2n1 (stereo not given) + Nc1ccc(C#CCN(C(=O)Cc2ncc(C(F)(F)F)cc2C(F)(F)F)c2ccc(F)cc2)nn1", "value_prefix": "=", "pIC50": 6.18}
{"molecule": "C=CC(=O)N1CCN(c2nc(=O)n(-c3c(C)ccnc3C(C)C)c3nc(-c4c(O)cccc4F)c(F)cc23)C(C)C1 (stereo not given) + Nc1ccc(C#CCN(C(=O)Cc2ncc(C(F)(F)F)cc2C(F)(F)F)c2ccc(F)cc2)nn1", "value_prefix": "<", "pIC50": 5.00}
{"molecule": "CCc1c2c(nc3ccc(O)cc13)-c1cc3c(c(=O)n1C2)COC(=O)[C@]3(O)CC + Nc1ccc(C#CCN(C(=O)Cc2ncc(C(F)(F)F)cc2C(F)(F)F)c2ccc(F)cc2)nn1", "value_prefix": "=", "pIC50": 7.90}
{"molecule": "CCc1cc2c(N3CCc4c(cc(Cn5ccnc5)cc4-c4cn(C)nc4C(F)(F)F)C3=O)ccnc2c(OC)n1 + Nc1ccc(C#CCN(C(=O)Cc2ncc(C(F)(F)F)cc2C(F)(F)F)c2ccc(F)cc2)nn1", "value_prefix": "<", "pIC50": 5.00}
{"molecule": "Nc1ccn(C2OC(CO)C(O)C2(F)F)c(=O)n1 (stereo not given) + COC1C(OC(N)=O)C(O)C(Oc2ccc3c(O)c(NC(=O)c4ccc(O)c(CC=C(C)C)c4)c(=O)oc3c2C)OC1(C)C", "value_prefix": "=", "pIC50": 6.79}

* * *

# Test system: 857933-349-R-J2-PDC complex spheroid viability
# experiment: Anticancer human tumor 857933-349-R-J2-PDC cell line growth inhibition [POLQ];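 also: spheroids exposed to compounds for seven days before readout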
# run_parameters: second compound 1 µM; first compound 10 µM; stronger effect = lower value
This listing pairs compounds with measured viability, T/C.
result_type: viability, T/C (%)

{"compound": "O=c1[nH]cc(F)c(=O)[nH]1 + Cc1cccc(N(C)C(=O)C2C(O)CCN2c2nc(C)cc(C(F)(F)F)c2C#N)c1", "readout_number": 30.6}
{"compound": "O=C(Nc1ccc(O)c(NS(=O)(=O)c2ccc(F)cc2)c1)c1ccc(-c2ccccc2)cc1 + COC1C(OC(N)=O)C(O)C(Oc2ccc3c(O)c(NC(=O)c4ccc(O)c(CC=C(C)C)c4)c(=O)oc3c2C)OC1(C)C", "readout_number": 80.7}
{"compound": "CNCc1ccc(-c2[nH]c3cc(F)cc4c3c2CCNC4=O)cc1 + Nc1ccc(C#CCN(C(=O)Cc2ncc(C(F)(F)F)cc2C(F)(F)F)c2ccc(F)cc2)nn1", "readout_number": 98.2}
{"compound": "Nc1ccn(C2OC(CO)C(O)C2(F)F)c(=O)n1 (stereo unspecified) + COC1C(OC(N)=O)C(O)C(Oc2ccc3c(O)c(NC(=O)c4ccc(O)c(CC=C(C)C)c4)c(=O)oc3c2C)OC1(C)C", "readout_number": 7.53}
{"compound": "C#Cc1c(F)ccc2cc(O)cc(-c3ncc4c(N5CC6CCC(C5)N6)nc(OCC56CCCN5CC(F)C6)nc4c3F)c12 (stereo unspecified) + Cc1cccc(N(C)C(=O)C2C(O)CCN2c2nc(C)cc(C(F)(F)F)c2C#N)c1", "readout_number": 87.6}
{"compound": "COc1ccc([C@@H](O)c2cc(-c3ncnc4cc(N5CCOCC5)ccc34)c(F)cc2Cl)nn1 + Cc1cccc(N(C)C(=O)C2C(O)CCN2c2nc(C)cc(C(F)(F)F)c2C#N)c1", "readout_number": 56.8}

* * *

# Test system: 857933-349-R-J2-PDC complex spheroid viability
# experiment: Anticancer human tumor 857933-349-R-J2-PDC cell line growth inhibition [POLQ];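 also: spheroids exposed to compounds for seven days before readout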
# run_parameters: curve of first compound; second compound 0.0316 µM

{"compound": "COc1cccc2c1C(=O)c1c(O)c3c(c(O)c1C2=O)CC(O)(C(=O)CO)CC3OC1CC(N)C(O)C(C)O1 (stereo not drawn) + Cc1cccc(N(C)C(=O)C2C(O)CCN2c2nc(C)cc(C(F)(F)F)c2C#N)c1", "value_prefix": "=", "IC50 / nM": 218}
{"compound": "O=c1[nH]cc(F)c(=O)[nH]1 + Nc1ccc(C#CCN(C(=O)Cc2ncc(C(F)(F)F)cc2C(F)(F)F)c2ccc(F)cc2)nn1", "value_prefix": "=", "IC50 / nM": 2150}
{"compound": "O=C(c1cc(Cc2n[nH]c(=O)c3ccccc23)ccc1F)N1CCN(C(=O)C2CC2)CC1 + Cc1cccc(N(C)C(=O)C2C(O)CCN2c2nc(C)cc(C(F)(F)F)c2C#N)c1", "value_prefix": ">", "IC50 / nM": 10000}

* * *

# Test system: 857933-349-R-J2-PDC complex spheroid viability
# experiment: Anticancer human tumor 857933-349-R-J2-PDC cell line growth inhibition [POLQ];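 also: spheroids exposed to compounds for seven days before readout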
# run_parameters: second compound 0.0316 µM; first compound 0.0316 µM; stronger effect = lower value
// assign 1 if viability, T/C falls strictly below 90%, else -1 (ties count as -1)

{"compound": "COc1cccc2c1C(=O)c1c(O)c3c(c(O)c1C2=O)CC(O)(C(=O)CO)CC3OC1CC(N)C(O)C(C)O1 (stereo not given) + Nc1ccc(C#CCN(C(=O)Cc2ncc(C(F)(F)F)cc2C(F)(F)F)c2ccc(F)cc2)nn1", "assayed_target": "857933-349-R-J2-PDC complex spheroid viability", "class_label": 1}
{"compound": "CC1COCCN1c1cc(-c2ccnn2C)c2ccnc(-c3ccn[nH]3)c2n1 (stereo not given) + Cc1cccc(N(C)C(=O)C2C(O)CCN2c2nc(C)cc(C(F)(F)F)c2C#N)c1", "assayed_target": "857933-349-R-J2-PDC complex spheroid viability", "class_label": 1}
{"compound": "COc1cc2cc(C(=O)CCC(=O)O)sc2cc1OC + Nc1ccc(C#CCN(C(=O)Cc2ncc(C(F)(F)F)cc2C(F)(F)F)c2ccc(F)cc2)nn1", "assayed_target": "857933-349-R-J2-PDC complex spheroid viability", "class_label": -1}
{"compound": "CC(C)n1c(=O)n(C)c2cnc3cc(F)c(-c4ccc(OCCCN5CCCCC5)nc4)cc3c21 + COC1C(OC(N)=O)C(O)C(Oc2ccc3c(O)c(NC(=O)c4ccc(O)c(CC=C(C)C)c4)c(=O)oc3c2C)OC1(C)C", "assayed_target": "857933-349-R-J2-PDC complex spheroid viability", "class_label": -1}
{"compound": "CCc1cc2c(N3CCc4c(cc(Cn5ccnc5)cc4-c4cn(C)nc4C(F)(F)F)C3=O)cc(C)nc2c(OC)n1 + COC1C(OC(N)=O)C(O)C(Oc2ccc3c(O)c(NC(=O)c4ccc(O)c(CC=C(C)C)c4)c(=O)oc3c2C)OC1(C)C", "assayed_target": "857933-349-R-J2-PDC complex spheroid viability", "class_label": -1}
{"compound": "CC1COCCN1c1cc(C2(O)CC3CCC(C2)O3)c2cnn(-c3ccn[nH]3)c2n1 (stereo not given) + COC1C(OC(N)=O)C(O)C(Oc2ccc3c(O)c(NC(=O)c4ccc(O)c(CC=C(C)C)c4)c(=O)oc3c2C)OC1(C)C", "assayed_target": "857933-349-R-J2-PDC complex spheroid viability", "class_label": 1}
{"compound": "CNCc1ccc(-c2[nH]c3cc(F)cc4c3c2CCNC4=O)cc1 + Cc1cccc(N(C)C(=O)C2C(O)CCN2c2nc(C)cc(C(F)(F)F)c2C#N)c1", "assayed_target": "857933-349-R-J2-PDC complex spheroid viability", "class_label": -1}
{"compound": "COc1cc2cc(C(=O)CCC(=O)O)sc2cc1OC + Cc1cccc(N(C)C(=O)C2C(O)CCN2c2nc(C)cc(C(F)(F)F)c2C#N)c1", "assayed_target": "857933-349-R-J2-PDC complex spheroid viability", "class_label": -1}
{"compound": "Cn1ncnc1[C@H]1c2n[nH]c(=O)c3cc(F)cc(c23)N[C@@H]1c1ccc(F)cc1 + Cc1cccc(N(C)C(=O)C2C(O)CCN2c2nc(C)cc(C(F)(F)F)c2C#N)c1", "assayed_target": "857933-349-R-J2-PDC complex spheroid viability", "class_label": -1}
